- test_protocol: Oral bioavailability in rat plasma at 10 mg/kg
- Format: ADME, organism-based
Collected bioavailability values appear next to each entry.
Reply numerically in %, unit not repeated.

[[record]]
compound = "NS(=O)(=O)OC[C@H]1C[C@@H](Nc2ncncc2C(=O)c2ccn(Cc3cccc(Br)c3)n2)C[C@@H]1O"
assay_readout = "bioavailability"
reading_unit = "%"
observed_result = 7.1

[[record]]
compound = "Cc1sc(C(=O)c2cncnc2N[C@@H]2C[C@H](COS(N)(=O)=O)[C@@H](O)C2)cc1[C@@H]1NCCc2ccc(Cl)cc21"
assay_readout = "bioavailability"
reading_unit = "%"
observed_result = 7.3


Attention now turns to another entry.
In plain terms, Cc1sc(C(=O)c2cncnc2N[C@@H]2C[C@H](COS(N)(=O)=O)[C@@H](O)C2)cc1C1OCCc2ccc(Cl)cc21 (stereo in doubt) has a documented bioavailability of 18
